- Test system: CCRF-CEM leukemia
- test: NCI-60 one-dose screen, 48 h (100 = growth as untreated, 0 = no growth, -100 = all killed)
- reported_conditions: 10 µM unless noted
Compounds without any hit were thinned out: in the full panel of roughly 83,000, 20% have a hit.

compound	tested_on	growth, %
CC(=O)Oc1ccc(Cl)cc1	CCRF-CEM leukemia	104
CCOc1cc(/C=N\Nc2nnc(C)n2N)c(C)cc1N(CCCl)CCCl	CCRF-CEM leukemia	4.43
CC1(C)N=C(N)N=C(N)N1c1cccc(C(=O)Nc2cccc(S(=O)(=O)F)c2)c1	CCRF-CEM leukemia	97.5
N#CC1c2ccccc2C=CN1C(=O)c1ccc(N(CCCl)CCCl)cc1 (stereo not given)	CCRF-CEM leukemia	87
O=C(C(=O)N1CCCC1)c1cn(CCCCCn2cc(C(=O)C(=O)N3CCCC3)c3ccccc32)c2ccccc12	CCRF-CEM leukemia	-26.6
O=[N+]([O-])c1cc([N+](=O)[O-])c(Cl)c(Cl)c1Cl	CCRF-CEM leukemia	-22.3
CC(=O)O[C@H]1CC[C@H]2[C@@H]3CC[C@H]4CC=C(C)C[C@]4(C)[C@H]3CC[C@]12C	CCRF-CEM leukemia	108
CC1CC=CCC12C(=O)NC(=S)NC2=O (stereo not given)	CCRF-CEM leukemia	82.6
C/C(=C\c1cc(C(F)(F)F)n(-c2ccc(N)cc2)n1)[C@@H]1C[C@@H]2O[C@]2(C)CCC[C@H](C)[C@H](O)[C@@H](C)C(=O)C(C)(C)[C@@H](O)CC(=O)O1	CCRF-CEM leukemia	12.8
Oc1c(Br)cc(Br)cc1Br.[Cu+2]	CCRF-CEM leukemia	101
CCCCCCCCCCCCOc1ccc(C(=O)Oc2ccc(CSP3(=O)OCC4OC(n5cnc6c(N)ncnc65)C(F)C4OP(=O)(O)OCC4OC(n5ccc(=O)[nH]c5=O)C(F)C4O3)cc2)cc1 (stereo not given)	CCRF-CEM leukemia	68.3
O=CN1N=C(c2ccccc2)CC1c1sc(N(CCCl)CCCl)nc1Cl (stereo not given)	CCRF-CEM leukemia	104
Cc1cccc(N=C2c3cc([N+](=O)[O-])ccc3-c3c2cc([N+](=O)[O-])cc3[N+](=O)[O-])c1	CCRF-CEM leukemia	21.4
Cc1cc(C)nc(C)c1.[Cl][Hg][Cl]	CCRF-CEM leukemia	78.3
COc1ccc(NP2(=O)OCC(C)(N)CO2)cc1 (stereo not given)	CCRF-CEM leukemia	88.9
CC12CCC3C(CC=C4CC(O)CCC43C)C1C/C(=C\N1CCOCC1)C2=O (stereo not given)	CCRF-CEM leukemia	94.3
O=S(=O)(O)c1ccc(-c2ccc([As](=O)(O)O)cc2)cc1	CCRF-CEM leukemia	99.7
COc1ccc(C(=O)c2ccc([As]=O)cc2)cc1 (stereo not given)	CCRF-CEM leukemia	-25.1
O=C1c2ccccc2C(=O)N1[N+](=O)[O-]	CCRF-CEM leukemia	90
Cc1cc(NC(=O)CCc2ccc(N3C(N)=NC(N)=NC3(C)C)cc2)ccc1S(=O)(=O)F	CCRF-CEM leukemia	-13
